TEST_SYSTEM: hERG potassium channel (Homo sapiens (Human))
Sequence (Q12809 whole entry): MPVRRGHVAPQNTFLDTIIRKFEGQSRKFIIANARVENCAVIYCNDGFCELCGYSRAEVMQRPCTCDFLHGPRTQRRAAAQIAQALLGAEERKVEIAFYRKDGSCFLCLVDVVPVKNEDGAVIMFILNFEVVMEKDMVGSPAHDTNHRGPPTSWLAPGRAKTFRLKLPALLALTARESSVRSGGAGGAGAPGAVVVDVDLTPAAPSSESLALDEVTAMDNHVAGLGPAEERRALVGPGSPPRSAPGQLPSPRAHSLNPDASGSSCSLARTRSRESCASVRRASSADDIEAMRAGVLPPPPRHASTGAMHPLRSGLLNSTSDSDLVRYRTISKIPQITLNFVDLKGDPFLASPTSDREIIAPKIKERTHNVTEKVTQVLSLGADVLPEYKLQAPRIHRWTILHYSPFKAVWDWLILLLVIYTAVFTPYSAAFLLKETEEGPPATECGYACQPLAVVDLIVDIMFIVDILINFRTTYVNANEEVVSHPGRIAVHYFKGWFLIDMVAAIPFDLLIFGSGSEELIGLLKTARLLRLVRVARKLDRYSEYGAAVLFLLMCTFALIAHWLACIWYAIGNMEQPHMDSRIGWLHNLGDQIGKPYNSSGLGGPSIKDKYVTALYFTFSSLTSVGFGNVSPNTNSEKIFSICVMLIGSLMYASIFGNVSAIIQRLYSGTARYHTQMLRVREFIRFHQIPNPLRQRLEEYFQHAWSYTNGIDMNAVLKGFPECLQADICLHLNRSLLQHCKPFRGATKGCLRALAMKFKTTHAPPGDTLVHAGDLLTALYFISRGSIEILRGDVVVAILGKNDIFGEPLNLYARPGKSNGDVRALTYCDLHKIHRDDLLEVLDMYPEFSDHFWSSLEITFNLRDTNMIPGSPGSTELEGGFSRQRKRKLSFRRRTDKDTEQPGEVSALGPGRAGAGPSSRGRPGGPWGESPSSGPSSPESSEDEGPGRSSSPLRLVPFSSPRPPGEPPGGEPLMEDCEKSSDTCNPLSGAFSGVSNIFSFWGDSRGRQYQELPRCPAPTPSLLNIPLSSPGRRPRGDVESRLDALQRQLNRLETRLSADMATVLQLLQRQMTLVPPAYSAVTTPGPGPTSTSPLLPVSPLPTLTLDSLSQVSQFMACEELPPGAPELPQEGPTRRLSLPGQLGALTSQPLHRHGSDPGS
ASSAY_PROTOCOL: Electrophysiological manual patch-clamp detection of effect on hERG potassium channel
REPORTED_METRIC: IC50 (µM)
Your answer should be a plain number; it is taken to be in µM.

Name the reported IC50 value associated with the molecule CC(=O)N1CC2(CC(Nc3cc4c(cn3)C3(CC3)CN(C[C@H](O)CN3CCc5ccccc5C3)C4=O)C2)C1
15.1

What does the data say about its IC50? Entry: CC(=O)N1CCC(Nc2cc3c(cn2)C2(CC2)CN(C[C@H](O)CN2CCc4ccccc4C2)C3=O)CC1
5.24

Report IC50 for CC(=O)N1CCC(Nc2ccc3c(c2)C(=O)N(C[C@H](O)CN2CCc4ccccc4C2)CC32CC2)CC1 [Compound B, reference compound] please.
2.71

----------
Tested on: MDA-MB-468 cells
ASSAY_PROTOCOL: In vitro cell activity, MDA-MB-468 cells, CCK-8
Type: cell-based
APPLIED_CONDITIONS: Homo sapiens, MDA-MB-468, 168 h, read-out: IC50 MDA-MB-468 Cell, triple negative breast cancer cells, 7 days
REPORTED_METRIC: IC50 (nM)
Report the value in nM with no unit label.

Give its IC50 value. Item: CC(=O)N1CCC(Nc2cc3c(cn2)C2(CC2)CN(C[C@H](O)CN2CCc4ccccc4C2)C3=O)CC1 [Example 1]
11.6

Please report the recorded IC50 for CC(=O)N1CCC(Nc2cc(C(=O)NC[C@H](O)CN3CCc4ccccc4C3)ncn2)CC1 [Compound A] .
116

Fill in: IC50 of CC(=O)N1CCC(Nc2ccc3c(c2)C(=O)N(C[C@H](O)CN2CCc4ccccc4C2)CC32CC2)CC1 [Compound B, reference compound] is ___
41.3

Which IC50 is reported for this compound? CC(=O)N1CC2(CC(Nc3cc4c(cn3)C3(CC3)CN(C[C@H](O)CN3CCc5ccccc5C3)C4=O)C2)C1 [Example 2]
7.35

----------
Would you mind telling me the reported IC50 of each entry?
System: Z-138 cells
ASSAY_PROTOCOL: In vitro cell activity, Z-138 cells, CellTiter-Glo
Type: cell-based
APPLIED_CONDITIONS: Z-138, 168 h, human mantle cell lymphoma cells, 7 days

Item CC(=O)N1CCC(Nc2cc3c(cn2)C2(CC2)CN(C[C@H](O)CN2CCc4ccccc4C2)C3=O)CC1 has what recorded IC50?
3.07 nM

Entry CC(=O)N1CCC(Nc2ccc3c(c2)C(=O)N(C[C@H](O)CN2CCc4ccccc4C2)CC32CC2)CC1 [Compound B, reference compound] has what IC50?
4.33 nM

Consider the molecule shown here: CC(=O)N1CC2(CC(Nc3cc4c(cn3)C3(CC3)CN(C[C@H](O)CN3CCc5ccccc5C3)C4=O)C2)C1 What is its recorded IC50?
2.2 nM

Give its IC50 value. Item: CC(=O)N1CCC(Nc2cc(C(=O)NC[C@H](O)CN3CCc4ccccc4C3)ncn2)CC1
19.5 nM

----------
TEST_SYSTEM: PRMT5 (Homo sapiens (Human), UniProt O14744)
Sequence (O14744 whole entry): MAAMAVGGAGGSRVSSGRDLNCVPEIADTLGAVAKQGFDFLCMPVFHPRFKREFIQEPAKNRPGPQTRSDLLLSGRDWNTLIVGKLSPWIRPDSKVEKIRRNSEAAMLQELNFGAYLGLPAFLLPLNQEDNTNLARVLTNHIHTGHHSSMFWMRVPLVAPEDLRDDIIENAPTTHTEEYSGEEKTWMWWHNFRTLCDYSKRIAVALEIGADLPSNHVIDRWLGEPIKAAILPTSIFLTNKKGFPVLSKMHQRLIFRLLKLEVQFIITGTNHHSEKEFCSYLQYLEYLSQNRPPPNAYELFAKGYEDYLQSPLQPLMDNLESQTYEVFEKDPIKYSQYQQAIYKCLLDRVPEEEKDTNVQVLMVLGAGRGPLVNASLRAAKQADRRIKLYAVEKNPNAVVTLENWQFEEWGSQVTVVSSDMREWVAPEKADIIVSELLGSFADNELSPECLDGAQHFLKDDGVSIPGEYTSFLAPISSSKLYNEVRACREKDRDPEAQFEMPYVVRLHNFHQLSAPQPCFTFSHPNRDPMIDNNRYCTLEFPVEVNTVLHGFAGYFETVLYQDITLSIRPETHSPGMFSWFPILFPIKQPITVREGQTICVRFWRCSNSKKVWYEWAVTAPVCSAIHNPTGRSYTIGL
Sequence (Q9BQA1 whole entry partner): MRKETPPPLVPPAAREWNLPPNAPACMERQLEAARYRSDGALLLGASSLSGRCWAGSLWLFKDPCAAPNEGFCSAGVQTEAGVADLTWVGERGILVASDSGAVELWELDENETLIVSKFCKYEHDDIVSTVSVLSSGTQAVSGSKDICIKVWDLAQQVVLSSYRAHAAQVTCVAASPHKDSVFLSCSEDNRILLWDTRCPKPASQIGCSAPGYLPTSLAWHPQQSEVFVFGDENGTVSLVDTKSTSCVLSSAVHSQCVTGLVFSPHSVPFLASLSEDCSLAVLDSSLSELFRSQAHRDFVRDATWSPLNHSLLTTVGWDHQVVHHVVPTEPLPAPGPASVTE
ASSAY_PROTOCOL: In vitro evaluation of kinase activity (PRMT5 enzymatic assay, [3H]-SAM FlashPlate)
Type: biochemical
APPLIED_CONDITIONS: polypeptide substrate H4(1-21)S1ac 100 nM, [3H]-SAM 250 nM, 25° C., 60 min; read-out: Enzyme IC50 PRMT5
REPORTED_METRIC: IC50 (nM)
Kindly answer with a numeric value in nM, unit omitted.

Consider the compound CC(=O)N1CCC(Nc2cc3c(cn2)C2(CC2)CN(C[C@H](O)CN2CCc4ccccc4C2)C3=O)CC1 and give its measured IC50.
32.7

# lookup: IC50 of CC(=O)N1CC2(CC(Nc3cc4c(cn3)C3(CC3)CN(C[C@H](O)CN3CCc5ccccc5C3)C4=O)C2)C1
49.7
